target: recombinant human β secretase (Homo sapiens, UniProt P56817); construct: made in house; host or cells: COS7 cells transfected with pBACE2; membrane fraction solubilised with octyl-β-glucoside, purified with anti-Flag antibody; assay: Measurement of inhibitory activity on β secretase (fluorogenic peptide substrate cleavage); assay type: biochemical; settings: pH 4.5
Sequence (P56817 with tags, fused parts or gaps): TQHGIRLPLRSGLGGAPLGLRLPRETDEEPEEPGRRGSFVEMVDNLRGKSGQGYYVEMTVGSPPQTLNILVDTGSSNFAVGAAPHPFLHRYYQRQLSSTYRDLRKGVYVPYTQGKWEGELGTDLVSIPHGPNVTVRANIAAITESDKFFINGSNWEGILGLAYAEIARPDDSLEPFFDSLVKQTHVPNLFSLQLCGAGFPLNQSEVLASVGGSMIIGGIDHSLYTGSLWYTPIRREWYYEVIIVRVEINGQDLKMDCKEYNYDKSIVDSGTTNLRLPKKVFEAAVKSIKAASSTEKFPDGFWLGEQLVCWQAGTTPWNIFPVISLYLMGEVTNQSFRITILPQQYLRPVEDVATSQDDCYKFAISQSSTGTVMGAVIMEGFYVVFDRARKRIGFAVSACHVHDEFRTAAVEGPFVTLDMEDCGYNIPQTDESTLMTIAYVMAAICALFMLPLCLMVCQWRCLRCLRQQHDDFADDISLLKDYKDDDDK

>  <molecule>
c1ccc(-c2ccc(COc3ccc4c(c3)CCC(CCN3CCCCC3)C4)cc2)cc1 (stereo not shown)

>  <IC50 (nM)>
349

$$$$
